- Test system: c-Src
- test: phosphorylation enrichment, bacterial display (enrichment ratio); higher = better substrate or ligand; peptides without Tyr show the background
property.measured: phosphorylation enrichment

INSERT INTO assay_data (seq_string, endpoint_value) VALUES
  ('TLKVGYKEKQR [EPHA3_Y659_T660K]', 0.334),
  ('PYYTSYPPSPD [GDAP2_Y491]', 6.44),
  ('GRFSGYKSKHG [EPHA3_Y570_C568S]', 0.364),
  ('VDGSLYKTHPQ [HK1_Y417]', 0.385),
  ('LGSNTYPFLLM [SAG_Y120_T125M]', 0.713),
  ('FGDTPYIPFRD [CDC14C_Y132]', 0.781),
  ('SDPIIYTLENV [ADGRE1_Y534_I539V]', 4.92),
  ('IVEYAYNDKAI [PUM3_Y259]', 0.474),
  ('KWKQKYEESQS [MYH6_Y1462_E1457K]', 0.38),
  ('RAMPVYEKAEH [TP63_Y231_K232E]', 0.776),
  ('VKANTYEKYWP [GATM_Y100]', 2.02),
  ('FSDPDYLAAVD [GLB1_Y154_S149F]', 0.381),
  ('ESLRSYDVMDV [KCNQ2_Y562_P561S]', 0.509),
  ('LHQSTYQCFDV [SLC7A14_Y693_R695C_YF]', 5.09),
  ('SNPAYYVLEGV [INPPL1_Y987_N982S]', 1.21);

###

- measured.target: Grb2 SH2 (UniProt P62993)
- Sequence (P62993 whole entry, looked up): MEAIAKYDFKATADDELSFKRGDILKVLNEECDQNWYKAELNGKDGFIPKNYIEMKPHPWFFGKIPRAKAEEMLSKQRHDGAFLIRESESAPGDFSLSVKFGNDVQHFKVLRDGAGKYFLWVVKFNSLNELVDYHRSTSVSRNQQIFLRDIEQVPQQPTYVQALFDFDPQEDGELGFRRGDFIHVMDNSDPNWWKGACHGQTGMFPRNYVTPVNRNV
- test: SH2 binding enrichment of the phosphorylated peptide, bacterial display (enrichment ratio); higher = better substrate or ligand; peptides without Tyr show the background
Here, each record is paired with measured SH2 binding enrichment data.
property.measured: SH2 binding enrichment

INSERT INTO measurements (seq_string, measured_target, endpoint_value) VALUES
  ('DFPGIYSGYDD [POLR1C_Y33_N32I]', 'Grb2 SH2 (UniProt P62993)', 0.835),
  ('GDNNIYVTKII [DLG1_Y349_S347N]', 'Grb2 SH2 (UniProt P62993)', 0.836),
  ('WVFNHYRCIIW [BRCA2_Y2624_W2626C_YF]', 'Grb2 SH2 (UniProt P62993)', 0.82),
  ('KWKQKYEESQS [MYH6_Y1462_E1457K]', 'Grb2 SH2 (UniProt P62993)', 1.35),
  ('NFADPYRQLPF [CTNND2_Y503_Q507P_YF]', 'Grb2 SH2 (UniProt P62993)', 0.728),
  ('KWLEQYTQAIE [LSP1_Y234_Q229K]', 'Grb2 SH2 (UniProt P62993)', 0.993);

###

- measured.target: EPHB1 (UniProt P54762)
- Sequence (P54762 whole entry, looked up): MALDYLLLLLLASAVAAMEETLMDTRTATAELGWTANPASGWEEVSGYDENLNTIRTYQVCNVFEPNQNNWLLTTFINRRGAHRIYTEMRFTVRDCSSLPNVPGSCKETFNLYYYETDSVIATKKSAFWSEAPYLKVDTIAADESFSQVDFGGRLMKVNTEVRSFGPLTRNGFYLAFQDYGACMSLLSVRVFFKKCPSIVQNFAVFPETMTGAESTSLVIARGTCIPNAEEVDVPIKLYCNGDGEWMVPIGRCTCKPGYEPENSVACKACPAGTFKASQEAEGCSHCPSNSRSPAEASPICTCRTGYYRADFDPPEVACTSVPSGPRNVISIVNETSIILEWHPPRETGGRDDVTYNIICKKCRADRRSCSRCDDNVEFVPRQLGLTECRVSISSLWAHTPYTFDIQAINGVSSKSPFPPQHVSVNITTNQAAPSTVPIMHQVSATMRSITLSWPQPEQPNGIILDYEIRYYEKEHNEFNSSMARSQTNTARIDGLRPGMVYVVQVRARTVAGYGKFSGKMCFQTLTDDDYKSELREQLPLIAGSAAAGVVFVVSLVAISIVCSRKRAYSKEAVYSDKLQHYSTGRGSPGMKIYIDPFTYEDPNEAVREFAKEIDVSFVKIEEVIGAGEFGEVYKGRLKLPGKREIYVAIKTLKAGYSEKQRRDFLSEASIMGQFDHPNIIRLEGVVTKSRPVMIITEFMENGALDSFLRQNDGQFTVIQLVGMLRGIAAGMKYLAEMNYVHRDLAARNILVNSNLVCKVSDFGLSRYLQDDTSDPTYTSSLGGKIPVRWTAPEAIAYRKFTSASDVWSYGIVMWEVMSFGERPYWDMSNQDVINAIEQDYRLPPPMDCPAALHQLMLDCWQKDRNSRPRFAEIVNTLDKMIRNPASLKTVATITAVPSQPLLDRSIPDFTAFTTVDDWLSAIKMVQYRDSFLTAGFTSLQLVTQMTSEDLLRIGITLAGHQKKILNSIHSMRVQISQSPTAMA
- test: phosphorylation enrichment, bacterial display (enrichment ratio); higher = better substrate or ligand; peptides without Tyr show the background
property.measured: phosphorylation enrichment

INSERT INTO measurements (seq_string, measured_target, property_measured, endpoint_value) VALUES
  ('AEVIWYKGDEV', 'EPHB1 (UniProt P54762)', 'phosphorylation enrichment', 0.707),
  ('TWSSSYRSDRL [CRYBB1_Y131]', 'EPHB1 (UniProt P54762)', 'phosphorylation enrichment', 0.441),
  ('VYAANYYKLLG [ROR2_Y645_D644N]', 'EPHB1 (UniProt P54762)', 'phosphorylation enrichment', 3.1),
  ('PINEPYGDDMD [JUP_Y693]', 'EPHB1 (UniProt P54762)', 'phosphorylation enrichment', 0.944),
  ('AIMSFYATLID [RYR1_Y2426_A2428T]', 'EPHB1 (UniProt P54762)', 'phosphorylation enrichment', 1.05),
  ('TRTDAYAVSSF', 'EPHB1 (UniProt P54762)', 'phosphorylation enrichment', 0.383),
  ('SDYYAYSPVQE [H6PD_Y449_R453Q]', 'EPHB1 (UniProt P54762)', 'phosphorylation enrichment', 16.4),
  ('QFKDKYLAKHN [CASK_Y712_YF]', 'EPHB1 (UniProt P54762)', 'phosphorylation enrichment', 0.53),
  ('KRGVSYILKLA [SERPINB1_Y84_A82V]', 'EPHB1 (UniProt P54762)', 'phosphorylation enrichment', 0.504),
  ('DYGSGYPNDPK [RNASEH2A_Y210]', 'EPHB1 (UniProt P54762)', 'phosphorylation enrichment', 0.482),
  ('PADRAYSWFQH [NDST1_Y711_YF]', 'EPHB1 (UniProt P54762)', 'phosphorylation enrichment', 0.543);

###

- measured.target: Fyn (UniProt P06241)
- Sequence (P06241 whole entry, looked up): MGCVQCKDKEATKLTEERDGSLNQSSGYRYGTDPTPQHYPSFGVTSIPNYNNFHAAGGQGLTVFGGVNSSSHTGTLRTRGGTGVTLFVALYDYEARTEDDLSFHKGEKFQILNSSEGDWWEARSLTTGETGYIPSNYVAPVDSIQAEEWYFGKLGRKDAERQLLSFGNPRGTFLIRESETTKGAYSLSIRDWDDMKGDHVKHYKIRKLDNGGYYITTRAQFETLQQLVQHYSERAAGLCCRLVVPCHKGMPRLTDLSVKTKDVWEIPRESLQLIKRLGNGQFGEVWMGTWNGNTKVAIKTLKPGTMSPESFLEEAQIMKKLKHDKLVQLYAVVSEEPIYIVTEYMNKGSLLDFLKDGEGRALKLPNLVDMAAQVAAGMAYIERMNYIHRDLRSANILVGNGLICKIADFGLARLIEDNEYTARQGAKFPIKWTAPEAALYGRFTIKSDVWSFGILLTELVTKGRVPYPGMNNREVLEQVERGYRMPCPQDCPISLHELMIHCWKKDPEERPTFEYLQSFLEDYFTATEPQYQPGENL
- test: phosphorylation enrichment, bacterial display (enrichment ratio); higher = better substrate or ligand; peptides without Tyr show the background
Here, each record is paired with measured phosphorylation enrichment data.
property.measured: phosphorylation enrichment

INSERT INTO results (seq_string, property_measured, endpoint_value) VALUES
  ('EEQKKYFNAVK [SCN5A_Y1494_M1498V_YF]', 'phosphorylation enrichment', 0.506),
  ('GDEEDYFEIPG [EGFR_opt_F_2015]', 'phosphorylation enrichment', 0.504),
  ('TLNHQYDFTFD [CSNK1A1_Y292_YF]', 'phosphorylation enrichment', 0.507),
  ('EVTQDYGLDPK [FH_Y110_N107T]', 'phosphorylation enrichment', 0.513);

###

- measured.target: Hck (UniProt P08631)
- Sequence (P08631 whole entry, looked up): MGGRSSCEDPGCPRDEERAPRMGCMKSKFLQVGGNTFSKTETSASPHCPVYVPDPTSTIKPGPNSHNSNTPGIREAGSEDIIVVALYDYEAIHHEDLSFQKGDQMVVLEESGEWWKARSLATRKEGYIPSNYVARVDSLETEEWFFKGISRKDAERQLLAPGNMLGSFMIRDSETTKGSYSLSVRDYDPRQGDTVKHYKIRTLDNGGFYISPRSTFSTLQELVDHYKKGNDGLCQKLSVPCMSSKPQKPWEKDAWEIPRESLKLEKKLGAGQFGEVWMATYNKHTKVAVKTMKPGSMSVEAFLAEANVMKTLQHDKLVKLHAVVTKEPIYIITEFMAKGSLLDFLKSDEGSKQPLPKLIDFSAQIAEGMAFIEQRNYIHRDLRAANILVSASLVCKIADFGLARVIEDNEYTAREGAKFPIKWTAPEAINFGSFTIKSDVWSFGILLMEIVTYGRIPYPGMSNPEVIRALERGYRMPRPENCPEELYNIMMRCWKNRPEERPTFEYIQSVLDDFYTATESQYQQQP
- test: phosphorylation enrichment, bacterial display (enrichment ratio); higher = better substrate or ligand; peptides without Tyr show the background
Here, each record is paired with measured phosphorylation enrichment data.
property.measured: phosphorylation enrichment

INSERT INTO results (seq_string, measured_target, endpoint_value) VALUES
  ('EGLKVYINGTL [ADGRD1_Y183_V184I]', 'Hck (UniProt P08631)', 0.541),
  ('CTNELYMMMRD [FGFR1_Y730]', 'Hck (UniProt P08631)', 1.47),
  ('LVPAWYIGFLC [KCNQ2_Y237_T234P]', 'Hck (UniProt P08631)', 0.516),
  ('AFQGKYTPSGQ [ALDOA_Y343_C339Y_YF]', 'Hck (UniProt P08631)', 0.266),
  ('EILTQYEAMAS [GFAP_Y242_R239L]', 'Hck (UniProt P08631)', 0.526),
  ('LISVSYDDWDY [GRIN2A_Y281]', 'Hck (UniProt P08631)', 0.666),
  ('SLGKGYSVGGC [MC4R_Y35_D37V]', 'Hck (UniProt P08631)', 0.434),
  ('NVKGIYAVGDV [GSR_Y371]', 'Hck (UniProt P08631)', 3.55),
  ('EADRKYEEVAR [TPM3_Y163]', 'Hck (UniProt P08631)', 0.663),
  ('AGKEEYSAMRD [HRAS_Y64_Q61K]', 'Hck (UniProt P08631)', 0.49),
  ('KLPYPYDDPFS [GPX2_Y127]', 'Hck (UniProt P08631)', 0.589),
  ('DERQPYAHMNG [IGF1R_Y1346]', 'Hck (UniProt P08631)', 0.427),
  ('HHFAAYFQQGD [GPI_Y351_R347H]', 'Hck (UniProt P08631)', 0.549),
  ('GMTLSYLFREL [NDUFS8_Y74_P79L]', 'Hck (UniProt P08631)', 0.487),
  ('EKDSNYCLCRT [ASIC2_Y357]', 'Hck (UniProt P08631)', 0.513),
  ('CKPGFYNLKEK [LAMA1_Y490]', 'Hck (UniProt P08631)', 0.357),
  ('KRFRIYHLAIS [BRCA2_Y3009_T3013I_YF]', 'Hck (UniProt P08631)', 0.494),
  ('LHSEAYLKYNE [PBRM1_Y1610_I1614N]', 'Hck (UniProt P08631)', 0.395),
  ('ESTPLYPMLFG [SCLY_Y280_F276S]', 'Hck (UniProt P08631)', 0.503),
  ('RAMPVYEKAEH [TP63_Y231_K232E]', 'Hck (UniProt P08631)', 1.02),
  ('EEKKKYYDTKI [CASP5_Y103]', 'Hck (UniProt P08631)', 0.4),
  ('SVTCTYSPALF [TP53_Y126_N131Y_YF]', 'Hck (UniProt P08631)', 0.695),
  ('AGIVDYNIIGW [MYH7_Y588]', 'Hck (UniProt P08631)', 0.497),
  ('FPLELYERVRI [PRKCG_Y312_M317I_YF]', 'Hck (UniProt P08631)', 1.18),
  ('RVNSAYQEKVS [ACAN_Y100_D102E]', 'Hck (UniProt P08631)', 0.49),
  ('GFQPEYGQPAG [SYP_Y278_D277E_YF]', 'Hck (UniProt P08631)', 0.4),
  ('SGSFRYGSSFE [SELE_Y390_C394F]', 'Hck (UniProt P08631)', 0.389),
  ('LTDRGYSFVTT [ACTA1_Y200_E197D]', 'Hck (UniProt P08631)', 0.677),
  ('DGNIDYAEFAK [MCFD2_Y138_Y135N]', 'Hck (UniProt P08631)', 0.673),
  ('KPEKTYGLRNE [CEP43_Y267_K271N]', 'Hck (UniProt P08631)', 0.406),
  ('VDTFWYKFLKR [EPM2A_Y86]', 'Hck (UniProt P08631)', 0.467),
  ('HFGNNYTDVLQ [MACC1_Y803_R804T_YF]', 'Hck (UniProt P08631)', 0.426),
  ('FSAPNCCYRCG [PPP2CA_Y265_Y265C]', 'Hck (UniProt P08631)', 0.55);
